- Test system: Calf thymus DNA
- run_description: Binding affinity towards calf thymus DNA, at pH 5
- Type: nucleic-acid assay
- measurement_parameters: Bos taurus
In this section, each of the molecules is paired with its reported log10(K app).
readout_type: log10(K app) (log10 of the value in M⁻¹)

>  <molecule>
COc1ccc2[nH]c3c(ccc4cccnc43)c2c1

>  <assayed_target>
Calf thymus DNA

>  <assay_value>
5.00

$$$$
>  <molecule>
CC(=O)[O-].Cc1c2cc[n+](C)cc2c(C)c2c1[nH]c1ccc(O)cc12 [ELLIPTINIUM ACETATE]

>  <assayed_target>
Calf thymus DNA

>  <assay_value>
6.11

$$$$
>  <molecule>
C[n+]1cccc2c3[nH]c4ccccc4c3ccc21.[I-]

>  <assayed_target>
Calf thymus DNA

>  <assay_value>
4.00

$$$$
>  <molecule>
C[n+]1ccc2c(ccc3c4ccccc4[nH]c23)c1.[I-]

>  <assayed_target>
Calf thymus DNA

>  <assay_value>
4.30

$$$$
>  <molecule>
Cl.Oc1ccc2[nH]c3c(ccc4cccnc43)c2c1

>  <assayed_target>
Calf thymus DNA

>  <assay_value>
4.30

$$$$
>  <molecule>
C[n+]1cccc2c3[nH]c4ccc(O)cc4c3ccc21.[I-]

>  <assayed_target>
Calf thymus DNA

>  <assay_value>
5.00

$$$$
>  <molecule>
COc1ccc2[nH]c3ccc4cc[n+](C)cc4c3c2c1.[I-]

>  <assayed_target>
Calf thymus DNA

>  <assay_value>
5.48

$$$$
>  <molecule>
Cc1cc2c3ccccc3[nH]c2c2c[n+](C)ccc12.[I-]

>  <assayed_target>
Calf thymus DNA

>  <assay_value>
5.00

$$$$
>  <molecule>
C[n+]1ccc2ccc3[nH]c4ccc(O)cc4c3c2c1.[I-]

>  <assayed_target>
Calf thymus DNA

>  <assay_value>
5.26

$$$$
>  <molecule>
COc1ccc2[nH]c3c4cc[n+](C)cc4ccc3c2c1.[I-]

>  <assayed_target>
Calf thymus DNA

>  <assay_value>
4.40

$$$$
